Origin of measurements: patent US9663460B2

# ASSAYED_SYSTEM: CCR2 (Homo sapiens (Human))
# MEASUREMENT_NOTES: Calcium activity assayed on the FLIPR Tetra in HEK-Gqi5 cells stably expressing CCR2
# CONDITION_DESCRIPTION: FLIPR Tetra calcium assay
# Description: HEK-Gqi5 cells stably expressing CCR2 were cultured in (DMEM high glucose, 10% FBS, 1% PSA, 400 μg/ml geneticin and 50 μg/ml hygromycin. Appropriate positive control chemokines (MCP-1, MIP1A or RANTES) was used as the positive control agonist for screening compound-induced calcium activity assayed on the FLIPR^Tetra. The drug plates were prepared in 384-well microplates using the EP3 and the MuItiPROBE robotic liquid handling systems. Compounds were synthesized and tested for CCR^2 activity.
READOUT_TYPE: IC50 (nM)

(A) CC[S+]([O-])c1ccc(Cl)cc1NS(=O)(=O)c1ccc(Cl)c(C(F)(F)F)c1 (centres unmarked)
(B) O=S(=O)(Nc1cc(Cl)ccc1SCc1ncc[nH]1)c1ccc(Cl)c(C(F)(F)F)c1
(C) CN(C)C(=O)CCSc1ccc(Cl)cc1NS(=O)(=O)c1ccc(Cl)c(C(F)(F)F)c1
Request: Hey, quick one: sort these by IC50, largest value first please. Field: ranking. Enter the labels in the order requested.
Response: C, B, A
(C: 506 nM, B: 190 nM, A: 50 nM)

(A) O=c1cc(CSc2ccc(Cl)cc2NS(=O)(=O)c2cc3ccccc3o2)[nH]c(=O)[nH]1
(B) O=S(=O)(Nc1cc(Cl)ccc1SCc1c[nH]cn1)c1ccc(Cl)c(C(F)(F)F)c1
Request: # compare IC50 for A vs B ; return the one with the smaller value Return value: the label identifying the chosen record.
Response: B

----------
# ASSAYED_SYSTEM: CCR2 (Homo sapiens (Human), UniProt P41597)
# Sequence (P41597 whole entry, species assumed): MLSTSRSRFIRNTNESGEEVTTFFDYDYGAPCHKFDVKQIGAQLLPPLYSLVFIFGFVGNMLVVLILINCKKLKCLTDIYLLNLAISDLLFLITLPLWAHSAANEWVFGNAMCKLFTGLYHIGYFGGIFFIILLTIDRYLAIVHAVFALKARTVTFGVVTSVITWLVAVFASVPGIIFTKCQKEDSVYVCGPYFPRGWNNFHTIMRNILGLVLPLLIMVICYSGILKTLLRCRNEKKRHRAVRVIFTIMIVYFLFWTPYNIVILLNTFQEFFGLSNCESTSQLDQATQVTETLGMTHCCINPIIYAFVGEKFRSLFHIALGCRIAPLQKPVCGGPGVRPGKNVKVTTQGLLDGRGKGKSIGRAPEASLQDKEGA
# MEASUREMENT_NOTES: Calcium activity assayed on the FLIPR Tetra in HEK-Gqi5 cells stably expressing CCR2
# CONDITION_DESCRIPTION: FLIPR Tetra calcium assay
# Procedure: HEK-Gqi5 cells stably expressing CCR2 were cultured in (DMEM high glucose, 10% FBS, 1% PSA, 400 μg/ml geneticin and 50 μg/ml hygromycin. Appropriate positive control chemokines (MCP-1, MIP1A or RANTES) was used as the positive control agonist for screening compound-induced calcium activity assayed on the FLIPR^Tetra. The drug plates were prepared in 384-well microplates using the EP3 and the MuItiPROBE robotic liquid handling systems. Compounds were synthesized and tested for CCR^2 activity.
READOUT_TYPE: IC50 (nM)

Completed entries (count: 3):
Record C[S+]([O-])c1ccc(Cl)cc1NS(=O)(=O)c1ccc(F)cc1F (stereo not drawn) . Reported IC50: 236

Record Nc1cccc(C[S+]([O-])c2ccc(Cl)cc2NS(=O)(=O)c2cc3ccccc3o2)n1 (stereo not drawn) . Reported IC50: 28

Record CS(=O)(=O)c1ccc(Cl)cc1NS(=O)(=O)c1cccc(Cl)c1F . Reported IC50: 116

(I) CSc1ccc(Cl)cc1NS(=O)(=O)c1ccc(Br)cc1
(II) O=S(=O)(Nc1cc(Cl)ccc1[S+]([O-])Cc1ccccc1)c1cc2ccccc2o1 (stereo not drawn)
Request: # compare IC50 for I vs II ; return the one with the smaller value Return value: the label identifying the chosen record.
Response: II

----------
# ASSAYED_SYSTEM: CCR2 (Homo sapiens (Human))
# MEASUREMENT_NOTES: Calcium activity assayed on the FLIPR Tetra in HEK-Gqi5 cells stably expressing CCR2
# Format: cell-based
# CONDITION_DESCRIPTION: FLIPR Tetra calcium assay
# Protocol: HEK-Gqi5 cells stably expressing CCR2 were cultured in (DMEM high glucose, 10% FBS, 1% PSA, 400 μg/ml geneticin and 50 μg/ml hygromycin. Appropriate positive control chemokines (MCP-1, MIP1A or RANTES) was used as the positive control agonist for screening compound-induced calcium activity assayed on the FLIPR^Tetra. The drug plates were prepared in 384-well microplates using the EP3 and the MuItiPROBE robotic liquid handling systems. Compounds were synthesized and tested for CCR^2 activity.
READOUT_TYPE: CCR2 % ANTAGONISM (%)

Completed entries (count: 4):
Record CSc1ccc(Cl)cc1NS(=O)(=O)c1ccc(Cl)c(C)c1 . Reported CCR2 % ANTAGONISM: 93

Record CC(C)NC(=O)CCSc1ccc(Cl)cc1NS(=O)(=O)c1ccc(Cl)c(C(F)(F)F)c1 . Reported CCR2 % ANTAGONISM: 59

Record CC(C)(C)OC(=O)Nc1nc(CS(=O)(=O)c2ccc(Cl)cc2NS(=O)(=O)c2cc3ccccc3o2)cs1 . Reported CCR2 % ANTAGONISM: 72

Record O=S(=O)(Cc1ncccn1)c1ccc(Cl)cc1NS(=O)(=O)c1cc2ccccc2o1 . Reported CCR2 % ANTAGONISM: 104

(I) N#Cc1ccc(SCc2ccccc2)c(NS(=O)(=O)c2cc3ccccc3o2)c1
(II) Nc1cccc(CSc2ccc(Cl)cc2NS(=O)(=O)c2ccccc2)c1
Request: Of I and II , which one carries the higher reported CCR2 % ANTAGONISM? Return value: the label identifying the chosen record.
Response: I

----------
# ASSAYED_SYSTEM: CCR2 (Homo sapiens (Human), UniProt P41597)
# MEASUREMENT_NOTES: Calcium activity assayed on the FLIPR Tetra in HEK-Gqi5 cells stably expressing CCR2
# Type: cell-based
# CONDITION_DESCRIPTION: FLIPR Tetra calcium assay
READOUT_TYPE: CCR2 % ANTAGONISM (%)

Completed entries (count: 5):
Result for O=S(=O)(Nc1cc(Cl)ccc1[S+]([O-])Cc1c[nH]cn1)c1ccc(Cl)c(C(F)(F)F)c1 (stereo not drawn) , tested on CCR2 (Homo sapiens (Human), UniProt P41597), CCR2 % ANTAGONISM: 111

Result for Nc1cccc(CSc2ccccc2NS(=O)(=O)c2cc3ccccc3o2)c1 , tested on CCR2 (Homo sapiens (Human), UniProt P41597), CCR2 % ANTAGONISM: 105

Result for CSc1ccc(Cl)cc1NS(=O)(=O)c1ccc(Br)cc1 , tested on CCR2 (Homo sapiens (Human), UniProt P41597), CCR2 % ANTAGONISM: 76

Result for Cc1ccc(S(=O)(=O)Nc2cc(Cl)ccc2S(C)(=O)=O)cc1[N+](=O)[O-] , tested on CCR2 (Homo sapiens (Human), UniProt P41597), CCR2 % ANTAGONISM: 89

Result for CS(=O)(=O)c1ccc(Cl)cc1NS(=O)(=O)c1ccco1 , tested on CCR2 (Homo sapiens (Human), UniProt P41597), CCR2 % ANTAGONISM: 99

(A) O=S(=O)(Nc1cc(Cl)ccc1[S+]([O-])C1CCC(O)C1)c1ccc(Cl)c(C(F)(F)F)c1 (stereo not drawn)
(B) C[S+]([O-])c1ccc(Cl)cc1NS(=O)(=O)c1cccs1 (stereo not drawn)
Request: # compare CCR2 % ANTAGONISM for A vs B ; return the one with the smaller value Return value: the label identifying the chosen record.
Response: B
(B: 53%, A: 101%)

(A) Nc1cccc(CS(=O)(=O)c2ccccc2NS(=O)(=O)c2cc3ccccc3o2)c1
(B) CC(C)(C)OC(=O)Nc1cc(CSc2ccc(Cl)cc2NS(=O)(=O)c2cc3ccccc3o2)ccn1
Request: Of A and B , which one carries the higher reported CCR2 % ANTAGONISM? Return value: the label identifying the chosen record.
Response: A
(A: 94%, B: 40%)

(A) CN(C)CCCS(=O)(=O)c1ccc(Cl)cc1NS(=O)(=O)c1cc2ccccc2o1
(B) Nc1cc(CS(=O)(=O)c2ccc(Cl)cc2NS(=O)(=O)c2cc3ccccc3o2)cc[n+]1[O-]
Request: # compare CCR2 % ANTAGONISM for A vs B ; return the one with the smaller value Return value: the label identifying the chosen record.
Response: B

----------
# ASSAYED_SYSTEM: CCR2 (Homo sapiens (Human), UniProt P41597)
# MEASUREMENT_NOTES: Calcium activity assayed on the FLIPR Tetra in HEK-Gqi5 cells stably expressing CCR2
# Assay type: cell-based
# CONDITION_DESCRIPTION: FLIPR Tetra calcium assay
READOUT_TYPE: CCR2 % ANTAGONISM (%)

Completed entries (count: 10):
Record Cc1ccc(S(=O)(=O)Nc2cc(Cl)ccc2S(C)(=O)=O)o1 . Reported CCR2 % ANTAGONISM: 90

Record COc1cccc(CSc2ccc(Cl)cc2NS(=O)(=O)c2cc3ccccc3o2)c1 . Reported CCR2 % ANTAGONISM: 85

Record O=S(=O)(Nc1cc(Cl)ccc1S(=O)(=O)C(F)(F)F)c1cc2ccccc2o1 . Reported CCR2 % ANTAGONISM: 91

Record CN(C)C(=O)CCC[S+]([O-])c1ccc(Cl)cc1NS(=O)(=O)c1cc2ccccc2o1 (stereo not shown) . Reported CCR2 % ANTAGONISM: 54

Record NCC[S+]([O-])c1ccc(Cl)cc1NS(=O)(=O)c1ccc(Cl)c(C(F)(F)F)c1 (stereo not shown) . Reported CCR2 % ANTAGONISM: 84

Record O=S(=O)(CCc1ccccn1)c1ccc(Cl)cc1NS(=O)(=O)c1cc2ccccc2o1 . Reported CCR2 % ANTAGONISM: 93

Record O=S(=O)(Nc1cc(Cl)ccc1[S+]([O-])CCc1ccccn1)c1cc2ccccc2o1 (stereo not shown) . Reported CCR2 % ANTAGONISM: 86

Record CN(C)C(=O)CCSc1ccc(Cl)cc1NS(=O)(=O)c1ccc(Cl)c(C(F)(F)F)c1 . Reported CCR2 % ANTAGONISM: 80

Record N#Cc1ccc([S+]([O-])Cc2ccccc2)c(NS(=O)(=O)c2cc3ccccc3o2)c1 (stereo not shown) . Reported CCR2 % ANTAGONISM: 105

Record C[S+]([O-])c1ccc(Cl)cc1NS(=O)(=O)c1ccco1 (stereo not shown) . Reported CCR2 % ANTAGONISM: 96

(I) Nc1cccc(CSc2ccc(Cl)cc2NS(=O)(=O)c2cccc(Cl)c2)c1
(II) Nc1cccc(CSc2ccc(Cl)cc2NS(=O)(=O)c2ccc(F)cc2F)c1
(III) CC(C)c1ccc(S(=O)(=O)Nc2cc(Cl)ccc2S(C)(=O)=O)cc1
Request: // ranking: key=CCR2 % ANTAGONISM, reverse=True Field: ranking. Enter the labels in the order requested.
Response: I, II, III
(I: 95%, II: 64%, III: 0%)
